Test system: KU-812
PROCEDURE_TEXT: cell viability (% survival relative to DMSO control, bortezomib = 0%); higher = less cytotoxic
MEASUREMENT_PARAMETERS: 10000 nM; 72 h
VALUE_KIND: cell viability
Include the unit after the number when you answer.

The cases that follow already have their cell viability on record.
>>> reported("CC(C)c1onc(-c2c(Cl)cccc2Cl)c1COc1ccc(/C=C/c2cccc(C(=O)O)c2)c(Cl)c1")
"76%"
>>> reported("NC(=O)c1cccc(-c2cccc(OC(=O)NC3CCCCC3)c2)c1")
"87.2%"
>>> reported("CC(C)c1cc2c(c(O)c1O)[C@@]1(C(=O)O)CCCC(C)(C)[C@@H]1CC2")
"74.1%"
>>> reported("CCN(CC)CCCC(C)Nc1ccnc2cc(Cl)ccc12 (stereo not given)")
"96.9%"

What measured cell viability goes with NCCCC(N)(C(=O)O)C(F)F (stereo not given) ? 105%

====

Test system: HL-60
PROCEDURE_TEXT: cell viability (% survival relative to DMSO control, bortezomib = 0%); higher = less cytotoxic
MEASUREMENT_PARAMETERS: 1000 nM; 72 h
VALUE_KIND: cell viability (%)
Express your answer in %, writing the number without its unit.

The cases that follow already have their cell viability on record.
>>> reported("N/C(=N\\CCCC(N)C(=O)O)N[N+](=O)[O-] (stereo unspecified)")
92.4
>>> reported("CCCCCCCCCCCC(=O)c1c(O)c(C(=O)CCCCCCCCCCC)c(O)c(C2CC(c3ccc(O)cc3)Oc3cc(O)ccc32)c1O (stereo unspecified)")
105
>>> reported("CCOC(=O)c1ccc(-c2ccc(OC(=O)N(C)Cc3cccc(-c4ccncc4)c3)cc2)cc1")
114

# returns recorded cell viability (system: HL-60) for CC(C)c1onc(-c2c(Cl)cccc2Cl)c1COc1ccc(/C=C/c2cccc(C(=O)O)c2)c(Cl)c1 109

# returns recorded cell viability (system: HL-60) for Cl.NC(CCC(=O)Nc1ccc([N+](=O)[O-])cc1)C(=O)O (stereo unspecified) 99.3

# returns recorded cell viability (system: HL-60) for O=C(C1CC1)N1CC[C@@H](C=C2NNC(=O)N2c2ccc(-c3ccc4occc4c3)cc2)C1 35

====

System: HL-60
PROCEDURE_TEXT: area under dose-response curve (viability, 1 nM-10 uM) (fraction (0-1)); higher = more sensitive
MEASUREMENT_PARAMETERS: 72 h; co-treatment: GSK2194069 100 nM
Quick list: area under dose-response curve per entry.

The cases that follow already have their area under dose-response curve on record.
>>> reported("O=C(O)Cn1nnc(-c2cc(N3CCC(Oc4cc(F)ccc4Br)CC3)no2)n1")
"< 0.0301"
>>> reported("Nc1nc(Cl)nc2c1ncn2[C@H]1C[C@H](O)[C@@H](CO)O1")
0.459
>>> reported("O[C@H]1[C@H]2[C@H](O)CCCN2C[C@H]1O")
"< 0.0301"
>>> reported("COc1cc(/C=C/C(=O)N2CCC=CC2=O)cc(OC)c1OC")
0.156
>>> reported("O=C(NNc1ccccc1)c1ccncc1")
"< 0.0301"

Pending molecule:
What measured area under dose-response curve goes with CC[C@H](C)C(=O)O[C@H]1C[C@@H](C)C=C2C=C[C@H](C)[C@H](CC[C@@H]3C[C@@H](O)CC(=O)O3)[C@H]21 ? < 0.0301

The measurements presented in this section are drawn from the supplement of paper PMC8671470.
